Hey, just so you know, these numbers are from patent US11993599B2.

Target: BRG1 (Homo sapiens, UniProt P51532)
Construct: either BRM primary antibody (Cell signaling Cat #11966) or BRG primary antibody (Abcam, ab 110641); endogenous in cells; host or cells: SW1573
Sequence (P51532 whole entry): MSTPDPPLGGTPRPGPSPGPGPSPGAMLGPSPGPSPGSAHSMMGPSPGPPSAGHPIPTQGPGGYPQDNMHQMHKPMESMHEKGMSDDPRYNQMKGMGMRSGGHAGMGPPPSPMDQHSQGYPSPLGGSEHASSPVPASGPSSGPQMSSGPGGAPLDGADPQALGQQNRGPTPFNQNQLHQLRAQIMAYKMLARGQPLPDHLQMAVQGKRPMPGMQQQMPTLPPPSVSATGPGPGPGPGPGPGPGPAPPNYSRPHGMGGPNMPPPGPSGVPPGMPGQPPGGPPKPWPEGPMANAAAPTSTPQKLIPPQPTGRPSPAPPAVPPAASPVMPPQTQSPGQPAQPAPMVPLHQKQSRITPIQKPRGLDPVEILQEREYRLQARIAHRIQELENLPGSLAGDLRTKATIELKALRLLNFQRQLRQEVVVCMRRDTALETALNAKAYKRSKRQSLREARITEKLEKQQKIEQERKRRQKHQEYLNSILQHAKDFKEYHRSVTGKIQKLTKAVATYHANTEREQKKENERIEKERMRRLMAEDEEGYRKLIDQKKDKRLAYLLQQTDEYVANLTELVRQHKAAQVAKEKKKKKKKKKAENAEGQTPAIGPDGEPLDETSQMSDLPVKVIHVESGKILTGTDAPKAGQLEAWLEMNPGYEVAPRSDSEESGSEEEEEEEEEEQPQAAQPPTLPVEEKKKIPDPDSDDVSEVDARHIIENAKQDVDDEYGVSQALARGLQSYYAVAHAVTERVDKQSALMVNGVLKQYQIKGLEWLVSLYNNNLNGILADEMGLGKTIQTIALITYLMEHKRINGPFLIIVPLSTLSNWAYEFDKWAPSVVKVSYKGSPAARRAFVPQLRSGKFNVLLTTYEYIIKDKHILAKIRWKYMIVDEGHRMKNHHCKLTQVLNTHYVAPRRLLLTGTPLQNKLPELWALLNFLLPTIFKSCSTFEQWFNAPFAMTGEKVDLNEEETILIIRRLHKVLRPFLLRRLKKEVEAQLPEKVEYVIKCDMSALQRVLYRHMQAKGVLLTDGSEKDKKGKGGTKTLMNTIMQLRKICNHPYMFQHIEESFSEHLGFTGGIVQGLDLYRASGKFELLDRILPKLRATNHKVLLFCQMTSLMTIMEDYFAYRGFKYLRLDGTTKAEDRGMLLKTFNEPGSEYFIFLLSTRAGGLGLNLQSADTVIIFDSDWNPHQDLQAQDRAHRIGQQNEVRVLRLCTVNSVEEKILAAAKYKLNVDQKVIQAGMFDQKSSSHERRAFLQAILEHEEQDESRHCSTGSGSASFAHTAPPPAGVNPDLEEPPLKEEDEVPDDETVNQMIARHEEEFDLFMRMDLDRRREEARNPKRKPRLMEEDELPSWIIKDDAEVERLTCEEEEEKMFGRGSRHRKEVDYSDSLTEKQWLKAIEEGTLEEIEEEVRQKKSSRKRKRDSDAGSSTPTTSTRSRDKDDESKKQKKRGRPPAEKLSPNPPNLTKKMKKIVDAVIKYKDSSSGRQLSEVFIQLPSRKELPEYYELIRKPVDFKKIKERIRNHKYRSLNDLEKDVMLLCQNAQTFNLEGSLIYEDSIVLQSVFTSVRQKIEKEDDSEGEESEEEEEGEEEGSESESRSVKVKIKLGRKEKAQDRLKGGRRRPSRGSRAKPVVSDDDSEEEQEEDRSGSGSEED
Assay: Immunofluorescence assay for BRG1 degradation in SW1573 cells
Format: cell-based
Conditions: 20 hours incubation, immunofluorescence mean nuclear signal, read-out: BRG1 IF Degradation IC50
Protocol: Example B-2: Immunofluorescence Assay for BRM and BRG1 Degraders SW1573 cells were seeded at 3000 cells/well in 384 well plates. The next day, compounds were added using an Echo dispenser. […] Harmony software (Perking Elmer) was used to quantify the mean nuclear signaling intensity of BRM or BRG signaling per cell in each well. Dose responses were determined from the concentration dependent response of mean nuclear signal intensity with data normalized to a known degrader control. […]
Property Label: DC50

compound=Nc1nnc(-c2ccccc2O)cc1N1CC2CCC(C1)N2c1ccnc(C#CCN2CC(F)(C3CC3)C2)c1 system_under_test="BRG1 (Homo sapiens, UniProt P51532)" data_value="< 0.01 µM"
compound=CC(C)(N)C#Cc1cc(N2C3CCC2CN(c2cc(-c4ccccc4O)nnc2N)C3)ccn1 system_under_test="BRG1 (Homo sapiens, UniProt P51532)" data_value="0.01 to 0.1 µM"
compound=Nc1nnc(-c2ccccc2O)cc1N1CC2CCC(C1)N2c1ccnc(C#CCN2C3CCCC2COC3)c1 system_under_test="BRG1 (Homo sapiens, UniProt P51532)" data_value="< 0.01 µM"
compound="Nc1nnc(-c2ccccc2O)cc1N1CC2CCC(C1)N2c1ccnc(C#CC2CCNC2)c1 (centres unmarked)" system_under_test="BRG1 (Homo sapiens, UniProt P51532)" data_value="> 0.1 µM"
compound=CCN(CC)CC#Cc1cc(N2C3CCC2CN(c2cc(-c4ccccc4O)nnc2N)C3)ccn1 system_under_test="BRG1 (Homo sapiens, UniProt P51532)" data_value="< 0.01 µM"
compound=Nc1nnc(-c2ccccc2O)cc1N1CC2CCC(C1)N2c1ccnc(C#C[C@H]2CC[C@H](N)CC2)c1 system_under_test="BRG1 (Homo sapiens, UniProt P51532)" data_value="> 0.1 µM"
compound=NCC#Cc1cc(N2C3CCC2CN(c2cc(-c4ccccc4O)nnc2N)C3)ccn1 system_under_test="BRG1 (Homo sapiens, UniProt P51532)" data_value="> 0.1 µM"
compound="Nc1nnc(-c2ccccc2O)cc1N1CC2CCC(C1)N2c1ccnc(C#CC2CCN2)c1 (centres unmarked)" system_under_test="BRG1 (Homo sapiens, UniProt P51532)" data_value="0.01 to 0.1 µM"

* * *

molecular target: BRM (Homo sapiens); assay: Immunofluorescence assay for BRM degradation in SW1573 cells; format: cell-based; design: treated overnight at 4° C. with either BRM primary antibody (Cell signaling Cat #11966) or BRG primary antibody; endogenous in cells; host or cells: SW1573; conditions: 20 hours incubation, immunofluorescence mean nuclear signal, read-out: BRM IF Degradation IC50
Sequence (P51531 whole entry): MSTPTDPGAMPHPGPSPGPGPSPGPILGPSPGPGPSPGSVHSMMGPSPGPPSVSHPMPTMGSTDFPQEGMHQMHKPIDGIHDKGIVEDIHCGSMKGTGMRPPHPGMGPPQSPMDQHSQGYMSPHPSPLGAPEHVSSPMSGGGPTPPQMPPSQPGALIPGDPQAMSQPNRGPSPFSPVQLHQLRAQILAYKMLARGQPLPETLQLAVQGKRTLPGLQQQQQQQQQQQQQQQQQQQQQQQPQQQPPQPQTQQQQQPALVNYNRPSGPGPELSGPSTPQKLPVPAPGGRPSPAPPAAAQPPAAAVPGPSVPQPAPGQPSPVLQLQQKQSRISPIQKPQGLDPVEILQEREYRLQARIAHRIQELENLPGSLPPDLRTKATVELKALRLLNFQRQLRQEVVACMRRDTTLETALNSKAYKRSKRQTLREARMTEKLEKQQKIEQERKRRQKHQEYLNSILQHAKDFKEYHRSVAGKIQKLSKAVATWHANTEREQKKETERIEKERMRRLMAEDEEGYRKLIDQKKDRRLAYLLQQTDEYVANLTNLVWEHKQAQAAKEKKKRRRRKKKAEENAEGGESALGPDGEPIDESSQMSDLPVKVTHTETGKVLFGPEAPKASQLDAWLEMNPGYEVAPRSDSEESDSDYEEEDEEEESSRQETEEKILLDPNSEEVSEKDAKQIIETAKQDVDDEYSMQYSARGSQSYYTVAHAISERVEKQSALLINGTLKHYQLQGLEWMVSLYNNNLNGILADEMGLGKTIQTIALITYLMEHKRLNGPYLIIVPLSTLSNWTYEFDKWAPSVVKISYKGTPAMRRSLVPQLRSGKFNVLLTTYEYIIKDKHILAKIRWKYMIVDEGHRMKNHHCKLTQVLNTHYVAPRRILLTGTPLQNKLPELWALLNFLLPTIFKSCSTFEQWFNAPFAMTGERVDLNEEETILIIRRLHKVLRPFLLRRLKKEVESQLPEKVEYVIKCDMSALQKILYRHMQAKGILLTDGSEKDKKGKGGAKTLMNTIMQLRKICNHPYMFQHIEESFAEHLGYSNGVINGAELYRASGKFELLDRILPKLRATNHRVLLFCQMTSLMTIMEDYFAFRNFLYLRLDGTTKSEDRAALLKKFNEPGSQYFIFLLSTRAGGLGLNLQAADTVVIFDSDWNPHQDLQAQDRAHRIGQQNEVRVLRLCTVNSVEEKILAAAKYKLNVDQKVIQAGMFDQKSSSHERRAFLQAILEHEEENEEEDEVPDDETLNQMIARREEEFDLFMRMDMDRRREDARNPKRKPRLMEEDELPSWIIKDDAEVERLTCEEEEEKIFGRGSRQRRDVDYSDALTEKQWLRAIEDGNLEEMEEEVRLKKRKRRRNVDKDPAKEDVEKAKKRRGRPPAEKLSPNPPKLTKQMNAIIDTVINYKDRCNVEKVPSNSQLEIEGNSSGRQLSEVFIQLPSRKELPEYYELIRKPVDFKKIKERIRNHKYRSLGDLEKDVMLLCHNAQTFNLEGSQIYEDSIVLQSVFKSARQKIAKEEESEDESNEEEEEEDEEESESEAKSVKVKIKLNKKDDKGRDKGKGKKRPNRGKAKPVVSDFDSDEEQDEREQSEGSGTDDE
Property Label: DC50

molecule="CC1CCN(CC#Cc2cc(N3C4CCC3CN(c3cc(-c5ccccc5O)nnc3N)C4)ccn2)CCC1(C)O (stereo not shown)" data_value="< 10 nM"
molecule=Nc1nnc(-c2ccccc2O)cc1N1CC2CCC(C1)N2c1ccnc(C#CCN2CCCC23CCC3)c1 data_value="< 10 nM"
molecule="Nc1nnc(-c2ccccc2O)cc1N1CC2CCC(C1)N2c1ccnc(C#CCN2CCCC(CO)C2)c1 (stereo not shown)" data_value="10 to 100 nM"
molecule=Nc1nnc(-c2ccccc2O)cc1N1CC2CCC(C1)N2c1ccnc(C#CCN2CC3(C2)CC3(F)F)c1 data_value="< 10 nM"
molecule=Nc1nnc(-c2ccccc2O)cc1N1CC2CCC(C1)N2c1ccnc(/C=C/CN2CCCCCC2)c1 data_value="< 10 nM"
molecule=Nc1nnc(-c2ccccc2O)cc1N1CC2CCC(C1)N2c1ccnc(C#CCN2CC(CC(F)F)C2)c1 data_value="< 10 nM"
molecule="Nc1nnc(-c2ccccc2O)cc1N1CC2CCC(C1)N2c1ccnc(C#CCN2CCC3CNCC32)c1 (stereo not shown)" data_value="> 100 nM"
